Cited source for all entries: PubChem BioAssay (NCI)

# System: SK-MEL-2 melanoma
# MEASUREMENT_DESCRIPTION: NCI-60 one-dose screen, 48 h
# CONDITION_DESCRIPTION: 10 µM
About 83,000 compounds went through this panel and 20% of them were active in at least one assay; those are over-represented in the sample as a whole. The source made the active and inactive calls. Rule for the calls: active = growth percent below 10; inactive = the rest.
Possible outcomes: active, inactive

COMPOUND	CLASSIFICATION
NC1CCc2cc(O)c(O)cc2C1 (centres undefined)	inactive
COc1cc2c(O[C@@H]3OC[C@H](O)[C@H](O)[C@H]3O)c3c(c(-c4ccc5c(c4)OCO5)c2cc1OC)C(=O)OC3	inactive
O=C(CCCc1ccc(N(CCCl)CCCl)cc1)OCc1ccccc1	inactive
C[C@@H]1CCC/C=C/[C@H]2C[C@@H](O)C[C@@H]2[C@@H](O)/C=C/C(=O)O1	active
